Data credit: ChEMBL document CHEMBL2203057

target: Sodium-dependent dopamine transporter (Homo sapiens); experiment: Displacement of [3H]WIN35,428 from human DAT expressed in HEK293 cells; format: cell-based
Sequence (Q01959 whole entry): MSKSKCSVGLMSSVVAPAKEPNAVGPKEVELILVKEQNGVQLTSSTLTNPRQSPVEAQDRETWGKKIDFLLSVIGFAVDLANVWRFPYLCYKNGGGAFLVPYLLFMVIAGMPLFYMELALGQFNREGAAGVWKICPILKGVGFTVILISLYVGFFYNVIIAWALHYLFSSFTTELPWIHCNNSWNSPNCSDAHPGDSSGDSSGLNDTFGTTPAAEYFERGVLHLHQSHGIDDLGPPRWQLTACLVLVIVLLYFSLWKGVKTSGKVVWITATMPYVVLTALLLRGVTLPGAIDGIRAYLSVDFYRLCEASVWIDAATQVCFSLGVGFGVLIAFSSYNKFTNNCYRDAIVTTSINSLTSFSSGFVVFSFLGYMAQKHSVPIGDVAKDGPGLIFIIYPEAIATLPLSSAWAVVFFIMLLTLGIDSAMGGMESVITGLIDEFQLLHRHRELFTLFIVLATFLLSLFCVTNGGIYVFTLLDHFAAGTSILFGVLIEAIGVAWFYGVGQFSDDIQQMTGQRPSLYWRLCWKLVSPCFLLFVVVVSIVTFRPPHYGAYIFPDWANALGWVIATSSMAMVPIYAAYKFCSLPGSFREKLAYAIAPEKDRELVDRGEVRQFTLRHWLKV
recorded endpoint: IC50
Remember to put the unit after the number in your answer.

Hello, please tell me recorded IC50 for this one: COC(=O)[C@H]1[C@@H](c2ccc(C)cc2)C[C@@H]2CC[C@H]1N2CC#CCF
1.93 nM

----------
target: Sodium-dependent serotonin transporter (Homo sapiens, UniProt P31645); assay: Displacement of [3H]citalopram from human SERT expressed in HEK293 cells; format: cell-based
Sequence (P31645 whole entry): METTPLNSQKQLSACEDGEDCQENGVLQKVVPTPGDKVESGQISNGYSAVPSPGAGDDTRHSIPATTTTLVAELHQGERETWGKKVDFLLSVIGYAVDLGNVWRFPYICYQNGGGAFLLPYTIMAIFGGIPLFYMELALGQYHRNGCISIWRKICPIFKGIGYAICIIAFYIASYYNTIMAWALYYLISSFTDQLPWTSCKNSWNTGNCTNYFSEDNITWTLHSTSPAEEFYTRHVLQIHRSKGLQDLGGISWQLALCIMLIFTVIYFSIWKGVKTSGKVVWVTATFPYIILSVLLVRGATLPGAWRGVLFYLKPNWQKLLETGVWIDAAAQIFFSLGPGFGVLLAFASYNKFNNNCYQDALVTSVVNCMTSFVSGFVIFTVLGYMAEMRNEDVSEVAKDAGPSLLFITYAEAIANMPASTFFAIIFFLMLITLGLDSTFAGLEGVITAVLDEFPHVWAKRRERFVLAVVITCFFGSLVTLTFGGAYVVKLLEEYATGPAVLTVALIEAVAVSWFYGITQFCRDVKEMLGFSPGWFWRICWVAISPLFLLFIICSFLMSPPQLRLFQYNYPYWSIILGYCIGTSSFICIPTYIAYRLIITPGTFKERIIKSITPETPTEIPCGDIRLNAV
recorded endpoint: pIC50
Bear in mind: pIC50 is minus log10 of a mol/L concentration; give just that figure.

Please indicate pIC50 recorded for COC(=O)[C@H]1[C@@H](c2ccc(C)cc2)C[C@@H]2CC[C@H]1N2CC#CCF
6.96
